System: Escherichia coli TOP10;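 also: peptides expressed intracellularly from a pBAD plasmid library in pooled LB shake-flask culture, induced with 0.3% L-arabinose, DNA abundance read by NGS, three biological replicates, DESeq2 with apeglm shrinkage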
Assay: shrunken log2 fold change of peptide-encoding DNA abundance (4.5 h post-induction vs induction); higher = less antimicrobial activity (less host growth inhibition)
Settings: time post-induction: 4.5 h; library: site-saturation at positions 5, 18, 19, 20
Overview of reported shrunken log2 fold change across a group of sequences:
Quantity name: shrunken log2 fold change

>>> df
             input_sequence              quantity_name    number
 0  RRIRKRPPRLPRPRPRPSFEPRP  shrunken log2 fold change  0.000728
 1  RRIRRRPPRLPRPRPRPHLEPRP  shrunken log2 fold change    0.0779
 2  RRIRVRPPRLPRPRPRPYQIPRP  shrunken log2 fold change     0.043
 3  RRIRCRPPRLPRPRPRPLNKPRP  shrunken log2 fold change    -0.695
 4  RRIRFRPPRLPRPRPRPPKFPRP  shrunken log2 fold change    0.0968
 5  RRIRARPPRLPRPRPRPREQPRP  shrunken log2 fold change     0.825
 6  RRIRFRPPRLPRPRPRPHLRPRP  shrunken log2 fold change     -0.19
 7  RRIRLRPPRLPRPRPRPKQMPRP  shrunken log2 fold change    0.0542
 8  RRIRSRPPRLPRPRPRPYKLPRP  shrunken log2 fold change    -0.399
 9  RRIRLRPPRLPRPRPRPLHYPRP  shrunken log2 fold change  -0.00799
10  RRIRLRPPRLPRPRPRPDYAPRP  shrunken log2 fold change    -0.224
11  RRIRVRPPRLPRPRPRPVQTPRP  shrunken log2 fold change    0.0297
12  RRIRTRPPRLPRPRPRPPSGPRP  shrunken log2 fold change     0.467
13  RRIRFRPPRLPRPRPRPLKSPRP  shrunken log2 fold change    -0.307
14  RRIRRRPPRLPRPRPRPQANPRP  shrunken log2 fold change     0.118
15  RRIRGRPPRLPRPRPRPPNVPRP  shrunken log2 fold change     0.431
16  RRIRLRPPRLPRPRPRPYQYPRP  shrunken log2 fold change    -0.151
17  RRIRERPPRLPRPRPRPMIKPRP  shrunken log2 fold change     -1.07

Where these numbers come from: the supplement of paper PMC9112550
